# Tested on: 475296-252-R-J1-PDC spheroid viability
# experimentNotes: Anticancer human tumor 475296-252-R-J1-PDC patient-derived rectal carcinoma cell line growth inhibition [PI3K]
# appliedConditions: second compound 0.1 µM; first compound 3 µM; stronger effect = lower value; spheroids with HUVEC and MSC
# Excerpt: Combinatorial screen of targeted agents with the PI3K inhibitors inavolisib, alpelisib, duvelisib, and copanlisib in multi-cell type tumor spheroids A high-throughput screen of multi-cell type tumor spheroids was designed to identify active combinations of targeted small molecules and PI3K pathway inhibitors. […] Compounds. […] If the clinical Cmax for an agent had not been determined, the highest concentration tested was 10 microM. […]
outcomeMeasure: viability, T/C (%)
Numeric only. Scale: %

[
  {
    "compound": "Cn1cnc2c(F)c(Nc3ccc(Br)cc3Cl)c(C(=O)NOCCO)cc21 + Cc1nc(NC(=O)N2CCCC2C(N)=O)sc1-c1ccnc(C(C)(C)C(F)(F)F)c1",
    "viability, T/C [%]": 58
  },
  {
    "compound": "Cn1cnc2c(F)c(Nc3ccc(Br)cc3Cl)c(C(=O)NOCCO)cc21 + COc1c(OCCCN2CCOCC2)ccc2c3n(c(=NC(=O)c4cnc(N)nc4)nc12)CCN3",
    "viability, T/C [%]": 6.68
  },
  {
    "compound": "Cn1cnc2c(F)c(Nc3ccc(Br)cc3Cl)c(C(=O)NOCCO)cc21 + CC(Nc1ccc2c(c1)OCCn1cc(N3C(=O)OCC3C(F)F)nc1-2)C(N)=O",
    "viability, T/C [%]": 40.4
  }
]

Please look at the following compound next.
Notebook: Cn1cnc2c(F)c(Nc3ccc(Br)cc3Cl)c(C(=O)NOCCO)cc21 + CC(Nc1ncnc2nc[nH]c12)c1cc2cccc(Cl)c2c(=O)n1-c1ccccc1 , viability, T/C read as 55.7

----------
# System: 475296-252-R-J1-PDC spheroid viability
# experimentNotes: Anticancer human tumor 475296-252-R-J1-PDC cell line growth inhibition [PI3K];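 further: spheroids exposed to agents for seven days before readout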
# appliedConditions: second compound 1 µM; first compound 0.0316 µM; stronger effect = lower value; spheroids with HUVEC and MSC
outcomeMeasure: viability, T/C (%)
Numeric only. Scale: %

[
  {
    "compound": "Cn1nccc1Nc1nccc(-c2ccn(C(CO)c3ccc(Cl)c(F)c3)c(=O)c2)n1 (stereo not drawn) + Cc1nc(NC(=O)N2CCCC2C(N)=O)sc1-c1ccnc(C(C)(C)C(F)(F)F)c1",
    "targetUnderTest": "475296-252-R-J1-PDC spheroid viability",
    "reportedMeasurement": 92.1
  }
]

Notebook: Cn1ncc(Cl)c1-c1cc(C(=O)NC(CN)Cc2cccc(F)c2)sc1Cl (stereo not drawn) + COc1c(OCCCN2CCOCC2)ccc2c3n(c(=NC(=O)c4cnc(N)nc4)nc12)CCN3 , viability, T/C read as 61.4

Notebook: Cn1ncc(Cl)c1-c1cc(C(=O)NC(CN)Cc2cccc(F)c2)sc1Cl (stereo not drawn) + CC(Nc1ccc2c(c1)OCCn1cc(N3C(=O)OCC3C(F)F)nc1-2)C(N)=O , viability, T/C read as 92.3

----------
# Tested on: 475296-252-R-J1-PDC spheroid viability
# experimentNotes: Anticancer human tumor 475296-252-R-J1-PDC cell line growth inhibition [PI3K];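 further: spheroids exposed to agents for seven days before readout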
# appliedConditions: curve of first compound; second compound 0.0316 µM; spheroids with HUVEC and MSC
Entries and their measured IC50 follow.

Known IC50 results, listed for orientation:
[
  {
    "compound": "CCN1CCN(Cc2ccc(Nc3ncc(F)c(-c4cc(F)c5nc(C)n(C(C)C)c5c4)n3)nc2)CC1 + COc1c(OCCCN2CCOCC2)ccc2c3n(c(=NC(=O)c4cnc(N)nc4)nc12)CCN3",
    "IC50": "> 1 µM"
  },
  {
    "compound": "CC(Cn1ccc(-c2ccc(C#N)c(Cl)c2)n1)NC(=O)c1cc(C(C)O)[nH]n1 (stereo unspecified) + CC(Nc1ncnc2nc[nH]c12)c1cc2cccc(Cl)c2c(=O)n1-c1ccccc1",
    "IC50": "> 10 µM"
  },
  {
    "compound": "CCCS(=O)(=O)Nc1ccc(F)c(C(=O)c2c[nH]c3ncc(-c4ccc(Cl)cc4)cc23)c1F + Cc1nc(NC(=O)N2CCCC2C(N)=O)sc1-c1ccnc(C(C)(C)C(F)(F)F)c1",
    "IC50": "> 10 µM"
  },
  {
    "compound": "Cn1ncc(Cl)c1-c1cc(C(=O)NC(CN)Cc2cccc(F)c2)sc1Cl (stereo unspecified) + Cc1nc(NC(=O)N2CCCC2C(N)=O)sc1-c1ccnc(C(C)(C)C(F)(F)F)c1",
    "IC50": "> 10 µM"
  },
  {
    "compound": "Cn1nccc1Nc1nccc(-c2ccn(C(CO)c3ccc(Cl)c(F)c3)c(=O)c2)n1 (stereo unspecified) + CC(Nc1ncnc2nc[nH]c12)c1cc2cccc(Cl)c2c(=O)n1-c1ccccc1",
    "IC50": "> 10 µM"
  }
]

Please look at the following compound next.
Bench note, 475296-252-R-J1-PDC spheroid viability: C[C@@H](NC(=O)c1ncnc(N)c1Cl)c1ncc(C(=O)Nc2cc(C(F)(F)F)c(Cl)cn2)s1 + CC(Nc1ccc2c(c1)OCCn1cc(N3C(=O)OCC3C(F)F)nc1-2)C(N)=O , IC50 reads > 10 µM

----------
# System: 475296-252-R-J1-PDC spheroid viability
# experimentNotes: Anticancer human tumor 475296-252-R-J1-PDC cell line growth inhibition [PI3K];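 further: spheroids exposed to agents for seven days before readout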
# appliedConditions: second compound 0.0316 µM; first compound 0.0949 µM; stronger effect = lower value; spheroids with HUVEC and MSC
# Text: Combinatorial screen of targeted agents with the PI3K inhibitors inavolisib, alpelisib, duvelisib, and copanlisib in multi-cell type tumor spheroids A high-throughput screen of multi-cell type tumor spheroids was designed to identify active combinations of targeted small molecules and PI3K pathway inhibitors. […] Compounds. […] If the clinical Cmax for an agent had not been determined, the highest concentration tested was 10 microM. […]
outcomeMeasure: viability, T/C (%)
Numeric only. Scale: %

Known viability, T/C results, listed for orientation:
[
  {
    "compound": "Cn1cnc2c(F)c(Nc3ccc(Br)cc3Cl)c(C(=O)NOCCO)cc21 + CC(Nc1ncnc2nc[nH]c12)c1cc2cccc(Cl)c2c(=O)n1-c1ccccc1",
    "unitsSymbol": "%",
    "viability, T/C": 81.6
  },
  {
    "compound": "Cn1cnc2c(F)c(Nc3ccc(Br)cc3Cl)c(C(=O)NOCCO)cc21 + Cc1nc(NC(=O)N2CCCC2C(N)=O)sc1-c1ccnc(C(C)(C)C(F)(F)F)c1",
    "unitsSymbol": "%",
    "viability, T/C": 85.7
  },
  {
    "compound": "Cn1cnc2c(F)c(Nc3ccc(Br)cc3Cl)c(C(=O)NOCCO)cc21 + CC(Nc1ccc2c(c1)OCCn1cc(N3C(=O)OCC3C(F)F)nc1-2)C(N)=O",
    "unitsSymbol": "%",
    "viability, T/C": 84.8
  }
]

Please look at the following compound next.
Notebook: Cn1cnc2c(F)c(Nc3ccc(Br)cc3Cl)c(C(=O)NOCCO)cc21 + COc1c(OCCCN2CCOCC2)ccc2c3n(c(=NC(=O)c4cnc(N)nc4)nc12)CCN3 , viability, T/C read as 56.3

----------
# Tested on: 475296-252-R-J1-PDC spheroid viability
# experimentNotes: Anticancer human tumor 475296-252-R-J1-PDC cell line growth inhibition [PI3K];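 further: spheroids exposed to agents for seven days before readout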
# appliedConditions: second compound 1 µM; first compound 0.01 µM; stronger effect = lower value; spheroids with HUVEC and MSC
outcomeMeasure: viability, T/C (%)
Numeric only. Scale: %

[
  {
    "compound": "CC(=O)c1c(C)c2cnc(Nc3ccc(N4CCNCC4)cn3)nc2n(C2CCCC2)c1=O + CC(Nc1ncnc2nc[nH]c12)c1cc2cccc(Cl)c2c(=O)n1-c1ccccc1",
    "viability, T/C (%)": 95.3
  },
  {
    "compound": "CCN1CCN(Cc2ccc(Nc3ncc(F)c(-c4cc(F)c5nc(C)n(C(C)C)c5c4)n3)nc2)CC1 + CC(Nc1ncnc2nc[nH]c12)c1cc2cccc(Cl)c2c(=O)n1-c1ccccc1",
    "viability, T/C (%)": 92.3
  },
  {
    "compound": "CC(=O)c1c(C)c2cnc(Nc3ccc(N4CCNCC4)cn3)nc2n(C2CCCC2)c1=O + CC(Nc1ccc2c(c1)OCCn1cc(N3C(=O)OCC3C(F)F)nc1-2)C(N)=O",
    "viability, T/C (%)": 91.2
  },
  {
    "compound": "Cn1ncnc1[C@H]1c2n[nH]c(=O)c3cc(F)cc(c23)N[C@@H]1c1ccc(F)cc1 + COc1c(OCCCN2CCOCC2)ccc2c3n(c(=NC(=O)c4cnc(N)nc4)nc12)CCN3",
    "viability, T/C (%)": 70.8
  },
  {
    "compound": "Cn1ncnc1[C@H]1c2n[nH]c(=O)c3cc(F)cc(c23)N[C@@H]1c1ccc(F)cc1 + Cc1nc(NC(=O)N2CCCC2C(N)=O)sc1-c1ccnc(C(C)(C)C(F)(F)F)c1",
    "viability, T/C (%)": 91.7
  }
]

Notebook: CC(C)n1nc(-c2ccc3oc(N)nc3c2)c2c(N)ncnc21 + CC(Nc1ncnc2nc[nH]c12)c1cc2cccc(Cl)c2c(=O)n1-c1ccccc1 , viability, T/C read as 88.5

Notebook: CC(C)n1nc(-c2ccc3oc(N)nc3c2)c2c(N)ncnc21 + COc1c(OCCCN2CCOCC2)ccc2c3n(c(=NC(=O)c4cnc(N)nc4)nc12)CCN3 , viability, T/C read as 55.6

Notebook: Cn1ncnc1[C@H]1c2n[nH]c(=O)c3cc(F)cc(c23)N[C@@H]1c1ccc(F)cc1 + CC(Nc1ncnc2nc[nH]c12)c1cc2cccc(Cl)c2c(=O)n1-c1ccccc1 , viability, T/C read as 103

Notebook: Cn1ncnc1[C@H]1c2n[nH]c(=O)c3cc(F)cc(c23)N[C@@H]1c1ccc(F)cc1 + CC(Nc1ccc2c(c1)OCCn1cc(N3C(=O)OCC3C(F)F)nc1-2)C(N)=O , viability, T/C read as 89.1

Notebook: CC(C)n1nc(-c2ccc3oc(N)nc3c2)c2c(N)ncnc21 + Cc1nc(NC(=O)N2CCCC2C(N)=O)sc1-c1ccnc(C(C)(C)C(F)(F)F)c1 , viability, T/C read as 91.9

Notebook: CC(C)n1nc(-c2ccc3oc(N)nc3c2)c2c(N)ncnc21 + CC(Nc1ccc2c(c1)OCCn1cc(N3C(=O)OCC3C(F)F)nc1-2)C(N)=O , viability, T/C read as 85.8

Notebook: CCN1CCN(Cc2ccc(Nc3ncc(F)c(-c4cc(F)c5nc(C)n(C(C)C)c5c4)n3)nc2)CC1 + COc1c(OCCCN2CCOCC2)ccc2c3n(c(=NC(=O)c4cnc(N)nc4)nc12)CCN3 , viability, T/C read as 58.2
